- Test system: PfAP2-LT AP2 domain (GST-tagged)
- ASSAY_REMARKS: gcPBM binding intensity (ln(normalized median fluorescence intensity)); higher = stronger DNA binding
Whole data set: some 25,000 sequences, median “ln(normalized median fluorescence intensity)” near 8.9, cut for the highest 2% near 10. Many of the other results were omitted from the sample, so the highest values are more common in it than they were.
VALUE_KIND: gcPBM binding intensity (ln)
Keep the answer to the number alone.

# count of solved cases: 3
# RESIDUE_STRING, gcPBM binding intensity (ln)
data = [
    ("ATTCATACATGCACACGTACATATTTAAATATAAAA [XGTACX_site8388]", 9.04),
    ("GATAAATTAAAACACACACACATATATATATATATA [CACACA_site3962]", 9.99),
    ("TAAATATAAACACAAACACACACATATATATATATA [CACACA_site7978]", 10),
]

Consider the sequence ATAACATATTTCTTTTGTACTCAAAATAAAATTAAT [XGTACX_site2479] and give its recorded gcPBM binding intensity (ln). 8.37

Consider the sequence AAAAACAACACAGATAAATTAACACACACACACATA [XGTACX_negctrl_site588] and give its recorded gcPBM binding intensity (ln). 10.1

Consider the sequence CATAATACAGATAACACACACAATTATACATAAAAT [CACACA_site5742] and give its recorded gcPBM binding intensity (ln). 9.59

Consider the sequence ATAATATAATAATACACACTCATTATATATATAAAG [CACACA_site3956] and give its recorded gcPBM binding intensity (ln). 8.82

Consider the sequence AATATAAATAAACACACACACATATATATATATATT [CACACA_site2906] and give its recorded gcPBM binding intensity (ln). 9.79

Consider the sequence AGAAAAAAAAAACACACACACACACCCTCAATATAA [CACACA_site39] and give its recorded gcPBM binding intensity (ln). 10.1
